# Species: Homo sapiens
# assay-overview: Substrate activity at human mitochondrial RNA polymerase assessed as nucleotide incorporation into RNA at 100 uM using [33P]-labeled 5'-UUUUGCCGCGCC-3' and 3'-CGGCGCGGCACGTAAGGG-5' RNA/DNA primer/template by polyacrylamide gel electrophoresis method
The source made the active and inactive calls. No cut-off for these calls is given here.
Choose the fitting class; nothing outside true (1) for active, false (0) for inactive is accepted.

Use the examples below as a reference point.
smi: C[C@@]1(O)[C@H](O)[C@@H](COP(=O)(O)OP(=O)(O)OP(=O)(O)O)O[C@H]1n1cnc2c(=O)[nH]c(N)nc21
class: true (1)

smi: C[C@@]1(Cl)[C@H](O)[C@@H](COP(=O)(O)OP(=O)(O)OP(=O)(O)O)O[C@H]1n1cnc2c(=O)[nH]c(N)nc21
class: true (1)

smi: C[C@@]1(O)[C@H](F)[C@@H](COP(=O)(O)OP(=O)(O)OP(=O)(O)O)O[C@H]1n1cnc2c(=O)[nH]c(N)nc21
class: false (0)

smi: C[C@]1(O)[C@H](n2cnc3c(=O)[nH]c(N)nc32)O[C@](F)(COP(=O)(O)OP(=O)(O)OP(=O)(O)O)[C@H]1O
class: true (1)

smi: C[C@]1(F)[C@H](n2cnc3c(=O)[nH]c(N)nc32)O[C@](F)(COP(=O)(O)OP(=O)(O)OP(=O)(O)O)[C@H]1O
class: false (0)

Task: I'd appreciate the recorded outcome for `C[C@@]1(F)[C@H](O)[C@@H](COP(=O)(O)OP(=O)(O)OP(=O)(O)O)O[C@H]1n1cnc2c(=O)[nH]c(N)nc21` from this test.
Result: true (1)
